Tested on: ATMs1981 autophosphorylation in AT153LA cells (TGA)
Experiment: Flow cytometry ATMs1981 autophosphorylation (FC-ATM) in AT153LA cells
Type: cell-based, human
Settings: Table 3, compounds 9; 30 μM
Reported metric: FC-ATM (Delta-FI, 30 μM)

Some solved entries appear below for comparison.
# Smiles record, FC-ATM (Delta-FI, 30 μM)
rows = [
    ("O=C1NC(=S)S/C1=C\\c1c[nH]c2ccccc12", "negative"),
    ("N=C1NC(=O)/C(=C/c2cc3ccccc3o2)S1", "negative"),
    ("N=C1NC(=O)/C(=C/c2cc3ccccc3[nH]2)S1", "negative"),
    ("O=C1NC(=S)S/C1=C\\c1ccc(-c2ccccn2)o1", "negative"),
]

Read the entry O=C1NC(=S)S/C1=C\c1cc2ccccc2o1 and write its reported FC-ATM (Delta-FI, 30 μM).
3.50
